target: Adenosine receptor A3 (Homo sapiens) (UniProt P0DMS8)
Sequence (P0DMS8 whole entry): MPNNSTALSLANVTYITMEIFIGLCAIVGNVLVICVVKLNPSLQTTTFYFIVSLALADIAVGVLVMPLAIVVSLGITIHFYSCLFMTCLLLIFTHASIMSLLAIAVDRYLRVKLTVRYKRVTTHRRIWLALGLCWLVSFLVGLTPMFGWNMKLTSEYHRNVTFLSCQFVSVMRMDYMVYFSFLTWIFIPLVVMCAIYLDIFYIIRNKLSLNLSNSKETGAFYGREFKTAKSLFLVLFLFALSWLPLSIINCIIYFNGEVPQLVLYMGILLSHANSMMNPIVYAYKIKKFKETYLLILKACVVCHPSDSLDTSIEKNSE
assay: Activity at human adenosine A3 receptor assessed as inhibition of forskolin-stimulated cAMP production in CHO cells
Type: functional, cell-based
Set-up: concentration or dose not given beside the values
Label rule, in plain words: Activity of 40% and up is met, under 40% is not met.

Please check the record CONc1nc(C#Cc2ccccn2)nc2c1ncn2[C@@H]1O[C@H](CO)[C@@H](O)[C@H]1O and state if its Activity is at or above 40%. met

Same question for CONc1nc(C#Cc2ccccc2)nc2c1ncn2[C@@H]1O[C@@H](CO)[C@@H](O)[C@H]1O please. met

# repeat for CCNC(=O)[C@H]1O[C@@H](n2cnc3c(NOC)nc(C#Cc4ccccc4)nc32)[C@H](O)[C@@H]1O not met

What do you get for CNC(=O)[C@H]1O[C@@H](n2cnc3c(NOC)nc(C#Cc4ccccn4)nc32)[C@H](O)[C@@H]1O ? not met

Follow-up entry: CONc1nc(C#Cc2ccc(C(C)=O)cc2)nc2c1ncn2[C@@H]1O[C@H](CO)[C@@H](O)[C@H]1O met

What would you report for CNC(=O)[C@H]1O[C@@H](n2cnc3c(NOC)nc(C#Cc4ccccc4)nc32)[C@H](O)[C@@H]1O ? not met

###

target: Adenosine receptor A3 (Homo sapiens, UniProt P0DMS8)
assay: Displacement of [3H]NECA from human recombinant adenosine A3 receptor expressed in CHO cells
Format: cell-based
propertyLabel: log10(Ki) (log10 of the value in nM)
Could you please treat all values as log10 of Ki in nM?

Value lookup for log10(Ki); key = CNC(=O)[C@H]1O[C@@H](n2cnc3c(NOC)nc(C#Cc4ccccn4)nc32)[C@H](O)[C@@H]1O 0.04

Likewise for CCNC(=O)[C@H]1O[C@@H](n2cnc3c(NOC)nc(C#Cc4ccccc4)nc32)[C@H](O)[C@@H]1O ? 0.54

Also CONc1nc(C#Cc2ccc(C(N)=O)cc2)nc2c1ncn2[C@@H]1O[C@H](CO)[C@@H](O)[C@H]1O ? 0.72

Try CCCCCc1ccc(C#Cc2nc(NOC)c3ncn([C@@H]4O[C@H](CO)[C@@H](O)[C@H]4O)c3n2)cc1 next. 1.59

Do the same for C#Cc1nc(NOC)c2ncn([C@@H]3O[C@H](CO)[C@@H](O)[C@H]3O)c2n1 please 1.36

And for CONc1nc(C#Cc2ccc(C(C)=O)cc2)nc2c1ncn2[C@@H]1O[C@H](CO)[C@@H](O)[C@H]1O ? 0.48

Then this compound: CONc1nc(C#Cc2ccccn2)nc2c1ncn2[C@@H]1O[C@H](CO)[C@@H](O)[C@H]1O 0.36

Try this compound too: CONc1nc(C#Cc2cccc(C(F)(F)F)c2)nc2c1ncn2[C@@H]1O[C@H](CO)[C@@H](O)[C@H]1O 1.36

And for CONc1nc(C#Cc2cccnc2)nc2c1ncn2[C@@H]1O[C@H](CO)[C@@H](O)[C@H]1O ? 0.90

Item: CNC(=O)[C@H]1O[C@@H](n2cnc3c(NOC)nc(C#Cc4ccccc4)nc32)[C@H](O)[C@@H]1O 0.28

Also CCNC(=O)[C@H]1O[C@@H](n2cnc3c(NOC)nc(C#Cc4ccc(F)cc4)nc32)[C@H](O)[C@@H]1O ? 0.51

Please give the result for CNC(=O)[C@H]1O[C@@H](n2cnc3c(NOC)nc(C#Cc4ccc(F)cc4)nc32)[C@H](O)[C@@H]1O too. 0.28

Check CONc1nc(C#Cc2ccc(F)cc2)nc2c1ncn2[C@@H]1O[C@H](CO)[C@@H](O)[C@H]1O too. 0.64

Field entry: CONc1nc(C#CCCCC#N)nc2c1ncn2[C@@H]1O[C@H](CO)[C@@H](O)[C@H]1O 0.61

Please give the result for CCNC(=O)[C@H]1O[C@@H](n2cnc3c(NOC)nc(C#Cc4ccc(C)cc4)nc32)[C@H](O)[C@@H]1O too. 0.83

Next compound: CONc1nc(C#C[Si](C)(C)C)nc2c1ncn2[C@@H]1O[C@H](CO)[C@@H](O)[C@H]1O 1.11

Now consider CCCCC#Cc1nc(NOC)c2ncn([C@@H]3O[C@H](CO)[C@@H](O)[C@H]3O)c2n1 and answer again. 0.45
